# Lookup of reported pA2 keyed by entry
Biological target: Adrenergic receptor alpha-2 (Rattus norvegicus, UniProt P22086+P19328+P22909)
Sequence (P22086 whole entry): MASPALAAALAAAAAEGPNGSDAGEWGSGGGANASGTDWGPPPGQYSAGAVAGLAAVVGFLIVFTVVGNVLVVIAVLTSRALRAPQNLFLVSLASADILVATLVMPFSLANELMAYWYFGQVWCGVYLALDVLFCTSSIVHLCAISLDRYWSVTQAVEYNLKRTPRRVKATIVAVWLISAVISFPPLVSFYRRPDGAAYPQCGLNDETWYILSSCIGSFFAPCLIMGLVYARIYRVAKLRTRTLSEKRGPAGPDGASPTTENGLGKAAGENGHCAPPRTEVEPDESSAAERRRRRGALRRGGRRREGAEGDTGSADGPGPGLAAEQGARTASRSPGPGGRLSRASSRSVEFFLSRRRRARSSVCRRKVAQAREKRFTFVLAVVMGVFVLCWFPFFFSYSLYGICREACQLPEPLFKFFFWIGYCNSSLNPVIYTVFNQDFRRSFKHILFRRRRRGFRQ
Sequence (P19328 whole entry): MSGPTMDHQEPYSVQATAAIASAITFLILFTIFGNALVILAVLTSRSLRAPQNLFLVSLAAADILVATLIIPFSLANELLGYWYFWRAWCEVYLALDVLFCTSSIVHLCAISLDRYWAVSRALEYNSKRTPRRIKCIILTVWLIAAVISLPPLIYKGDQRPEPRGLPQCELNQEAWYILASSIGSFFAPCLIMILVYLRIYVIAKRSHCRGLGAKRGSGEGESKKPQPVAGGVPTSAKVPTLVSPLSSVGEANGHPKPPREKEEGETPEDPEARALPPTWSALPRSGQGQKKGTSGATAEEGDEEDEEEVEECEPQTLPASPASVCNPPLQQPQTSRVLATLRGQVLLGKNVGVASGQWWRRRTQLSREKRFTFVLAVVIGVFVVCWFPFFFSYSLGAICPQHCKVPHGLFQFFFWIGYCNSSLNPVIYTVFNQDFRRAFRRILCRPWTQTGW
Sequence (P22909 whole entry): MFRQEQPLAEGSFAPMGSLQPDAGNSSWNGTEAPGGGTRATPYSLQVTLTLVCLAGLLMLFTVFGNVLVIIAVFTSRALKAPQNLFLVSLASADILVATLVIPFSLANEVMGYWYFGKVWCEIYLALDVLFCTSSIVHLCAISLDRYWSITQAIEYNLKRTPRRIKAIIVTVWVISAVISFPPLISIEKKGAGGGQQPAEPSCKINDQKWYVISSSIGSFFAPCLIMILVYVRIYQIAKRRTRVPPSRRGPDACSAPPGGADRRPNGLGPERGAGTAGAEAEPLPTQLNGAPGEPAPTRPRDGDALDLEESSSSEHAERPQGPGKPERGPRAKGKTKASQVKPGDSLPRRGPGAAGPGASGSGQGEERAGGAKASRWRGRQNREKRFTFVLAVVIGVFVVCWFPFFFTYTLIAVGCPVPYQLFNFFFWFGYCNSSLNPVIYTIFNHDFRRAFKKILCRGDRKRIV
Experiment: In vitro antagonistic activity against alpha-2 adrenergic receptor in isolated electrically stimulated rat vas deferens (clonidine-induced decrease in twitch height)
Assay type: functional, tissue-based
Just the number, please, no unit attached.

# compound, assayed system, pA2
records = [
    ("C[C@@H]1c2ccccc2CC[C@@H]1CC1=NCCN1.Cl", "Adrenergic receptor alpha-2 (Rattus norvegicus, UniProt P22086+P19328+P22909)", 7.22),
    ("C1=C(CC2=NCCN2)Cc2ccccc21.Cl", "Adrenergic receptor alpha-2 (Rattus norvegicus, UniProt P22086+P19328+P22909)", 7.19),
    ("C1=C(CC2=NCCN2)CCc2ccccc21.Cl [NAPAMEZOLE HYDROCHLORIDE]", "Adrenergic receptor alpha-2 (Rattus norvegicus, UniProt P22086+P19328+P22909)", 7.76),
    ("CC1=C(CC2=NCCN2)CCc2ccccc21.Cl", "Adrenergic receptor alpha-2 (Rattus norvegicus, UniProt P22086+P19328+P22909)", 7.19),
    ("CC1=C(Cc2ncc[nH]2)CCc2ccccc21", "Adrenergic receptor alpha-2 (Rattus norvegicus, UniProt P22086+P19328+P22909)", 6.92),
    ("Cc1c(CC2=NCCN2)ccc2ccccc12.Cl", "Adrenergic receptor alpha-2 (Rattus norvegicus, UniProt P22086+P19328+P22909)", 7.35),
]

get_value(item= `Cl.c1ccc2cc(CC3=NCCN3)ccc2c1` , readout=pA2) returns 7.67

get_value(item= CC(C1=Cc2ccccc2CC1)C1=NCCN1.Cl (centres undefined) , readout=pA2) returns 7.43

get_value(item= `CC1=C(CC2=NCCN2)Cc2ccccc21.Cl` , readout=pA2) returns 7.71
